- studySystem: SfurOBP2 (Sogatella furcifera, UniProt V5T759)
- Sequence (V5T759 entry or part of it): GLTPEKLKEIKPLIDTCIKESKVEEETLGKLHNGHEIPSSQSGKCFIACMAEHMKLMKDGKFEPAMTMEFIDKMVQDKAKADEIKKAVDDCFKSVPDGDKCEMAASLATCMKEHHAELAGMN
- testMethodNotes: biochemical
- Format: binding
- testSettings: ligand concentration 6 (unit not given), replicate column 2 of 3
attributeMeasured: Fluorescence competitive binding assay, OBP2 (raw fluorescence reading)
Numbers only.

// below: answered molecules
molecule	studySystem	observedValue
CCCCCCCC	SfurOBP2 (Sogatella furcifera, UniProt V5T759)	16391
CCCCCCCCCCCCO	SfurOBP2 (Sogatella furcifera, UniProt V5T759)	18064
C=CC(C)(O)CCC=C(C)CCC=C(C)C (mixture of isomers)	SfurOBP2 (Sogatella furcifera, UniProt V5T759)	15150
CC1=CC[C@@H](C(C)(C)O)CC1	SfurOBP2 (Sogatella furcifera, UniProt V5T759)	20387
C=CC(C)(O)CCC=C(C)C (stereo not drawn)	SfurOBP2 (Sogatella furcifera, UniProt V5T759)	19481

Now look at this one.
Lab note: measured Fluorescence competitive binding assay, OBP2 (raw fluorescence reading) of CC(=O)/C=C/C1=C(C)CCCC1(C)C was 18583
